src = patent US20030119023

target: Zif268 (wild-type ZIF, three-finger) (UniProt P08046 P08046:333-421); test: EMSA; Bis-tris propane pH 7.0, 100 mM NaCl, 5 mM MgCl2, 50 uM ZnCl2, room temperature
outcome-measure: Kd (pM)
Please give a number only; it is taken to be in pM.

Find the recorded Kd belonging to bsA (ZIF site) (dsDNA) DNA 1: GCGTGGGCG DNA 2: CGCCCACGC and report it.
450
